Tested on: NCI-H23 lung
assay info: NCI tumour cell line growth inhibition, 48 h
property name: TGI

O=C(N/C(=C\c1ccc(/C=C(\NC(=O)c2ccccc2)c2nc3cc(Cl)ccc3[nH]2)cc1)c1nc2cc(Cl)ccc2[nH]1)c1ccccc1 ... > 100 µM
CC(=O)[CH-]C(=O)c1ccccc1.CC(=O)[CH-]C(=O)c1ccccc1.CC1(C)OCC(C2OC3OC(C)(C)OC3C2[O-])O1.CC1(C)OCC(C2OC3OC(C)(C)OC3C2[O-])O1.[Ti+4] (centres undefined) ... 38.3 µM
Nc1nc2c(nnn2C2OC(CO)C(O)C2O)c(=O)[nH]1 (centres undefined) ... > 100 µM
CC1=NN2C(c3ccc(C)cc3)=CSC2=NC(C)(C)C1 ... > 100 µM
Cc1ccc(NCC(=O)N2CC(=O)Nc3ccccc32)cc1 ... > 100 µM
CCOC(=O)C1=C(C)N(Cc2ccccc2)C(=O)C1CC#N (centres undefined) ... > 100 µM
O=C1CCCC(=O)N1n1c(Cc2ccccc2)n[nH]c1=O ... > 100 µM
COC(=O)C(C(=O)C(=O)Nc1ccccc1C#N)c1nc2ccc([N+](=O)[O-])cc2[nH]c1=O (centres undefined) ... > 100 µM

TGI reported for this molecule O=c1c2c(c3ccccc3n1-c1ccccc1)NC(=S)NC2c1ccc(Cl)cc1 (centres undefined) : 50.7 µM

###

System: NCI/ADR-RES ovarian
assay info: NCI tumour cell line growth inhibition, 48 h
property name: TGI

Example entries and their recorded answers appear below.
O=C1C(Cl)C2(CC(/C=C/c3ccccc3O)=NN2c2cccc(S(=O)(=O)O)c2)N1c1nc2ccccc2s1 (configuration not stated) ... > 100 µM
COC(CC1(/C=C/O[Si](C(C)C)(C(C)C)C(C)C)C(=O)N(COCC[Si](C)(C)C)c2ccccc21)OC (configuration not stated) ... > 100 µM
COc1ccc(CNC(C)C(=O)O)cc1 (configuration not stated) ... > 100 µM
CC(C)(C)CNC(=O)NCn1cc(-c2ccccc2)nn1 ... > 100 µM
CCOC(=O)c1ccc2c(c1)nc(/C=C/c1ccc(Cl)cc1)n2-c1cc(C(C)(C)C)[nH]n1 ... > 100 µM

TGI reported for this compound CCOC(=O)C1C(c2ccc(O)c(OC)c2)c2c([nH][nH]c2=O)CC1(C)O (configuration not stated) : > 100 µM

TGI reported for this compound `c1ccc(-c2nnc(SCc3c[nH]c4ccccc34)n2-c2ccccc2)cc1` : > 100 µM

TGI reported for this compound OC(c1cc2ccccc2[nH]1)C1(c2cccnc2)SCCCS1 (configuration not stated) : > 100 µM

TGI reported for this compound `O=C1C=CC(=Nc2ccccc2)c2ccccc21` : 95.4 µM

###

Tested on: HL-60(TB) leukemia
assay info: NCI tumour cell line growth inhibition, 48 h
Below: a set of entries, each annotated with reported TGI.

Example entries and their recorded answers appear below.
CCOC(=O)NC(C(=O)OCC)(N1CCN(c2cc3c(cc2F)c(=O)c(C(=O)O)cn3CC)CC1)C(F)(F)F (stereo not given) ... > 100 µM
Cc1c(/C=N/NC(=S)Nc2ccccc2)c(=O)n(-c2ccccc2)n1C ... > 100 µM
c1ccc(Nc2nc(-c3ccccn3)cs2)nc1 ... 3.01 µM

Reading of TGI for `COc1ccc(-c2nc(Nc3ccc(-c4nc5ccccc5[nH]4)cc3)nc(N3CCOCC3)n2)cc1` with HL-60(TB) leukemia: 5.67 µM

Reading of TGI for O=C(COc1ccc(OCC(=O)NNC2=NC(c3cc(F)c(Cl)cc3Cl)CS2)c(Cl)c1)NNC1=NC(c2cc(F)c(Cl)cc2Cl)CS1 (stereo not given) with HL-60(TB) leukemia: > 100 µM
